target_of_assay: recombinant eIF4E (Homo sapiens (Human), UniProt P06730)
Sequence (P06730 whole entry): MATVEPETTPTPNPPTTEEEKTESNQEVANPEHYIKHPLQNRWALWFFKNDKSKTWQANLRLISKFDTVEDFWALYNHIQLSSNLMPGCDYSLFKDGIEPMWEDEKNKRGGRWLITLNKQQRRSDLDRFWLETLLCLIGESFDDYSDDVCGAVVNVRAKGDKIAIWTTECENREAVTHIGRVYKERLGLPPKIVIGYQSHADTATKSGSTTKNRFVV
measurement_description: Fluorescence polarization competition assay for eIF4E binding potency
run_conditions: inhibition of eIF4E/EDA-m7GDP-ATTO-550 binding; calculated IC50 values, Table 4B; read-out: IC50
pIC50: −log10 of the molar value.
readout_type: pIC50

CCN(c1ncc2nc(C)n(CC#Cc3ccc(Cl)cc3-c3ccnc4c(C(=O)NS(=O)(=O)c5cccnc5)csc34)c(=O)c2c1C#N)C1CCN(C2CC(F)(F)C2)CC1; 7.46
Cc1nc2cnc(C3=CCNCC3)c(C#N)c2c(=O)n1CCOc1ccc(Cl)cc1-c1ccnc2c(C(=O)O)csc12; 7.52

(I) Cc1nc2cnc(N3CC(N4CCC(F)(F)CC4)C3)c(C#N)c2c(=O)n1CCOc1ccc(Cl)cc1-c1ccnc2c(C(=O)O)csc12
(II) Cc1cc2cc(C(F)(F)F)cc(C#N)c2c(O)c1CCOc1ccc(Cl)cc1-c1ccnc2c(C(=O)O)csc12
(III) Cc1nc2cc3c(c(C#N)c2c(=O)n1CCOc1ccc(Cl)cc1-c1ccnc2c(C(=O)O)csc12)S(=O)(=O)N(C)C3
(IV) Cc1nc2cnc(N(C)C3CCN(C(C)(C)C(C)(F)F)CC3)c(C#N)c2c(=O)n1CC#Cc1ccc(Cl)cc1-c1ccnc2c(C(=O)O)csc12
Please put the entries in order of rising pIC50. Please, when replying, give the labels in the order that was requested.
II, III, I, IV

----------
target_of_assay: recombinant eIF4E (Homo sapiens (Human))
measurement_description: Fluorescence polarization competition assay for eIF4E binding potency
run_conditions: inhibition of eIF4E/EDA-m7GDP-ATTO-550 binding by 50%; Table 4B calculated values; read-out: IC50
pIC50: −log10 of the molar value.
readout_type: pIC50

Cc1cc(-c2cc(Cl)ccc2OCCn2c(C)nc3cc(C(F)(F)F)c(-c4ccncc4C)nc3c2=O)c2scc(C(=O)O)c2n1; 8.14
COc1cncc(-c2c(C(F)(F)F)cc3nc(C)n(CCOc4ccc(Cl)cc4-c4cc(C)nc5c(C(=O)O)csc45)c(=O)c3c2C#N)c1; 7.29
Cc1cccc(-c2c(C(F)(F)F)cc3nc(C)n(CCOc4ccc(Cl)cc4-c4cccc(C(=O)O)c4)c(=O)c3c2C#N)n1; 7.24
Cc1cc(-c2cc(Cl)ccc2OCCn2c(C)nc3c(-c4ccccc4)nc(N(C)C)c(C#N)c3c2=O)c2scc(C(=O)O)c2n1; 7.87
Cc1nc2cc(C(F)(F)F)c(C(F)F)c(C#N)c2c(=O)n1CCOc1ccc(Cl)cc1-c1cccc(C(=O)O)c1; 7.67
Cc1nc2cc(Cl)cc(C#N)c2c(=O)n1CCOc1ccc(Cl)cc1-c1ccnc2c(C(=O)O)csc12; 7.36
Cc1ccc(-c2c(C(F)(F)F)cc3nc(C)n(CCOc4ccc(Cl)cc4-c4cc(C)nc5c(C(=O)O)csc45)c(=O)c3c2C#N)nn1; 7.91
Cc1cc(-c2c(F)cc3nc(C)n(CCOc4ccc(Cl)cc4-c4cc(C)nc5c(C(=O)O)csc45)c(=O)c3c2C#N)ccn1; 10.15

(A) Cc1cc(-c2cc(Cl)ccc2OCCn2c(C)nc3c(C)nc(C)c(C#N)c3c2=O)c2scc(C(=O)O)c2n1
(B) N#Cc1cc2c(=O)n(CC#Cc3ccc(Cl)cc3-c3cccc(C(=O)O)c3)cnc2cn1
(C) Cc1ccc(C(=O)O)c2nccc(-c3cc(Cl)ccc3OCCn3cnc4cncc(C#N)c4c3=O)c12
Kindly order the items shown according to pIC50, from the highest value down. Form entry: ranked labels (order as requested).
A, B, C

(A) Cc1nc2cc(C(F)(F)F)cc(C#N)c2c(=O)n1CCOc1ccc(Cl)cc1-c1ccnc2c1CCC2C(=O)O (centres unmarked)
(B) Cc1nc2cnc(/C=C/CN3CC(F)C3)c(C#N)c2c(=O)n1CCOc1ccc(Cl)cc1-c1ccnc2c(C(=O)O)csc12
Which value of pIC50 is greater, the one for A or the one for B ? Select an item and report its label.
B

(I) Cc1cc(-c2cc(Cl)ccc2OCCn2c(C)nc3cc(C(F)(F)F)c(N4CCN(C)CC4)c(C#N)c3c2=O)c2scc(C(O)(O)C(F)(F)F)c2n1
(II) Cc1nc2cc(C(F)(F)F)cc(C#N)c2c(=O)n1CCOc1ccc(Cl)cc1-c1ccnc2c(C(=O)O)cnn12
Determine, for I and II , which has the greater value of pIC50. Answer by stating the label of the chosen item.
II
(II: 7.92, I: 7.25)

----------
target_of_assay: recombinant eIF4E (Homo sapiens (Human), UniProt P06730)
measurement_description: Fluorescence polarization competition assay for eIF4E binding potency
run_conditions: inhibition of eIF4E/EDA-m7GDP-ATTO-550 binding; calculated IC50 values, Table 4B; read-out: IC50
readout_type: IC50 (nM)

Cc1nc2cnc(/C=C/CN(C)CCF)c(C#N)c2c(=O)n1CCOc1ccc(Cl)cc1-c1ccnc2c(C(=O)O)csc12 [compound 1328]; 24.8
CCN(c1ncc2nc(C)n(CC#Cc3ccc(Cl)cc3-c3ccnc4c(C(=O)NS(=O)(=O)c5cccnc5)csc34)c(=O)c2c1C#N)C1CCN([C@H]2C[C@H](OC(F)F)C2)CC1 [compound 1770]; 17.5
Cc1nc2cnc(N(C)C3CCN(CC(F)(F)c4ccn(C)n4)CC3)c(C#N)c2c(=O)n1CC#Cc1ccc(Cl)cc1-c1ccnc2c(C(=O)O)csc12 [compound 1536]; 18.3

----------
target_of_assay: recombinant eIF4E (Homo sapiens (Human), UniProt P06730)
measurement_description: Fluorescence polarization competition assay for eIF4E binding potency
run_conditions: fluorescence polarization competition, 75 nM recombinant eIF4E, 20 nM EDA-m7GDP-ATTO-550; IC50 class; read-out: elF4E FP
Readings of IC50 for the listed compounds

The following compounds have reported results that may help.
Cc1nc2cnc(N3CCN(C4CC4)CC3)c(C#N)c2c(=O)n1CC#Cc1ccc(Cl)cc1-c1ccnc2c(C(=O)O)csc12; < 50 nM
Cc1cc(-c2cc(Cl)ccc2OCCn2c(C)nc3c(C)nc(-c4cc(F)ccc4F)c(C#N)c3c2=O)c2scc(C(=O)O)c2n1; < 50 nM
Cc1cc(-c2cc(Cl)ccc2OCCn2c(C)nc3ccc(C(F)(F)CN(C)C)c(C#N)c3c2=O)c2scc(C(=O)O)c2n1; < 50 nM
Cc1cc(-c2cc(Cl)ccc2OCCn2c(C)nc3cc(C(F)(F)F)c(CCN(C)C)c(C#N)c3c2=O)c2sc(C)c(C(=O)O)c2n1; < 50 nM
Cc1nc2cc(C(F)(F)F)c(OC(F)F)c(C#N)c2c(=O)n1CCOc1ccc(Cl)cc1-c1ccnc2c(C(=O)O)csc12; < 50 nM

Bench note: what IC50 did `Cc1sc2c(-c3cc(Cl)ccc3OCCn3c(C)nc4cc(C(F)(F)F)cc(C#N)c4c3=O)ccnc2c1C(=O)O` show?
50 to 1000 nM

Using the record for `N#Cc1cc(C(F)F)cc2ncn(CCOc3ccc(Cl)cc3-c3cccc(C(=O)O)c3)c(=O)c12` , report its IC50.
< 50 nM

----------
target_of_assay: recombinant eIF4E (Homo sapiens (Human))
measurement_description: Fluorescence polarization competition assay for eIF4E binding potency
run_conditions: fluorescence polarization competition, 75 nM recombinant eIF4E, 20 nM EDA-m7GDP-ATTO-550; IC50 class; read-out: elF4E FP
readout_type: IC50

Cc1cc(-c2c(F)cc3nc(C)n(CCOc4ccc(Cl)cc4-c4cc(C)nc5c(C(=O)O)csc45)c(=O)c3c2C#N)ccn1; < 50 nM

Entry `Cc1cc(-c2cc(Cl)ccc2OCCn2c(C)nc3cc(C(F)(F)F)c(-c4ncc(F)cc4F)c(C#N)c3c2=O)c2scc(C(=O)O)c2n1` : reported IC50 = ?
< 50 nM

Reported IC50 for `C#Cc1cc(C#N)c2c(=O)n(CCOc3ccc(Cl)cc3-c3ccnc4c(C(=O)O)csc34)c(C)nc2c1` : what is it?
< 50 nM

What IC50 value was documented for this molecule, `N#Cc1cccc2c(=O)n(CCOc3ccc(Cl)cc3-c3cccc(C(=O)O)c3)cnc12` ?
> 1000 nM

Find the recorded IC50 belonging to `Cc1cc(-c2cc(Cl)ccc2OCCn2c(C)nc3cc(C(F)F)c(-c4cc(F)cnc4C)c(C#N)c3c2=O)c2scc(C(=O)O)c2n1` and report it.
< 50 nM

GET /values?readout=IC50&item= `Cc1nc2cc(C(F)(F)F)cc(C#N)c2c(=O)n1CCOc1ccc(Cl)cc1N1CCC(C(=O)O)CC1`
> 1000 nM

Returns the measured IC50 for the input molecule. Input: `Cc1nc2cnc(C3=CCN(CC(F)(F)F)CC3)c(C#N)c2c(=O)n1CCOc1ccc(Cl)cc1-c1ccnc2c(C(=O)O)csc12`
< 50 nM

----------
target_of_assay: recombinant eIF4E (Homo sapiens (Human))
measurement_description: Fluorescence polarization competition assay for eIF4E binding potency
run_conditions: inhibition of eIF4E/EDA-m7GDP-ATTO-550 binding by 50%; Table 4B calculated values; read-out: IC50
pIC50: −log10 of the molar value.
readout_type: pIC50

Guide cases for pIC50, answers given:
Cc1nc2cnc(N(C)C3CCN(C)C(C(F)F)C3)c(C#N)c2c(=O)n1CCOc1ccc(Cl)cc1-c1ccnc2c(C(=O)O)csc12 (stereo not drawn); 7.77
Cc1cc(-c2cc(Cl)ccc2OCCn2c(C)nc3c(C)nc(C(F)(F)F)c(C#N)c3c2=O)c2scc(C(=O)O)c2n1; 7.29

(A) Cc1cc(-c2cc(Cl)ccc2OCCn2c(C)nc3cc(C(F)(F)F)c(N4CC(=O)C4)nc3c2=O)c2scc(C(=O)O)c2n1
(B) Cc1cc(-c2cc(Cl)ccc2C#CCn2c(C)nc3c(C)nc(N4CCN(C)CC4)c(C#N)c3c2=O)c2scc(C(=O)O)c2n1
(C) Cc1nc2ccc(S(=O)(=O)N(C)Cc3ccccc3)c(C#N)c2c(=O)n1CCOc1ccc(Cl)cc1-c1ccnc2c(C(=O)O)csc12
(D) COc1sc2c(-c3cc(Cl)ccc3OCCn3c(C)nc4cnc(C5CC5)c(C#N)c4c3=O)ccnc2c1C(=O)O
Task field, ranking: reported pIC50, descending order. Thanks in advance for listing the labels in the requested order.
A, B, D, C
